# Tested on: SA4 cell line
# PROCEDURE SUMMARY: High throughput drug sensitivity and resistance test (CellTiter-Glo, 72 hours)
# Assay type: cell-based
# TEST PARAMETERS: drug combined with anagrelide hydrochloride (100 nM) minus drug alone, SA4
Catalogue of compounds with associated SA4 cell line: DSS(combo (anagrelide))-DSS(drug)
OBSERVED PROPERTY: SA4 cell line: DSS(combo (anagrelide))-DSS(drug)

INSERT INTO assay_data (smiles_code, reported) VALUES
  ('CN(C)Cc1c(C(=O)NCCOc2ccc(C(=O)NO)cc2)oc2ccccc12', 10.9),
  ('O=C(CCCCCCC(=O)Nc1ccccc1)NO', 7.2),
  ('NS(=O)(=O)OC[C@@H]1C[C@@H](n2ccc3c(N[C@H]4CCc5ccccc54)ncnc32)C[C@@H]1O', 13.8),
  ('N[C@@H]1CCCN(c2c(/C=C3\SC(=O)NC3=O)cccc2-c2ccccc2)C1', 7.1),
  ('Cc1[nH]c2ccccc2c1CCNCc1ccc(/C=C/C(=O)NO)cc1', 11.7),
  ('C/C=C1\NC(=O)[C@H]2CSSCC/C=C/[C@H](CC(=O)N[C@H](C(C)C)C(=O)N2)OC(=O)[C@H](C(C)C)NC1=O', 6.3),
  ('Cc1ccc(NS(=O)(=O)c2cccc(C#N)c2)c2[nH]cc(C#N)c12', 18.2),
  ('CC1(C)OCCn2c1nc1c(N3CCOCC3)nc(-c3cnc(N)nc3)nc12', 3.9),
  ('CCN1C(=O)CNc2ncc(-c3ccc(-c4nc[nH]n4)nc3C)nc21', 9.5),
  ('CC1(C)CCC(CN2CCN(c3ccc(C(=O)NS(=O)(=O)c4ccc(NCC5CCOCC5)c([N+](=O)[O-])c4)c(Oc4cnc5[nH]ccc5c4)c3)CC2)=C(c2ccc(Cl)cc2)C1', 6.2),
  ('CO[C@@H]1[C@H](N(C)C(=O)c2ccccc2)C[C@H]2O[C@]1(C)n1c3ccccc3c3c4c(c5c6ccccc6n2c5c31)C(=O)NC4', 5.1),
  ('CC(C)(C)C[C@@H]1N[C@@H](C(=O)N[C@H]2CC[C@H](O)CC2)[C@H](c2cccc(Cl)c2F)[C@]12C(=O)Nc1cc(Cl)ccc12', 7.8),
  ('Nc1nc2cc(-c3ccc4ncc(C(=O)N5CCOCC5)n4c3)ccc2o1', 5.8),
  ('Nc1nccc(-c2c(-c3ccc(F)cc3)ncn2C2CCCCC2)n1', 7.1),
  ('CO[C@H]1CC[C@H](N2C(=O)CNc3ncc(-c4ccc(C(C)(C)O)nc4)nc32)CC1', 5.6),
  ('CC(C)C[C@@H](C(=O)N[C@H](C(=O)OC1CCCC1)c1ccccc1)[C@H](O)C(=O)NO', 5.1),
  ('Cn1ncc(Cl)c1-c1cc(C(=O)N[C@H](CN)Cc2ccc(F)c(F)c2)oc1Cl', 5.4),
  ('CO[C@H]1C[C@@H]2CC[C@@H](C)[C@@](O)(O2)C(=O)C(=O)N2CCCC[C@H]2C(=O)O[C@H]([C@H](C)C[C@@H]2CC[C@@H](OCCO)[C@H](OC)C2)CC(=O)[C@H](C)/C=C(\C)[C@@H](O)[C@@H](OC)C(=O)[C@H](C)C[C@H](C)/C=C/C=C/C=C/1C', 8.1),
  ('Cn1cc(CNCC2CCN(c3ncc(C(=O)NO)cn3)CC2)c2ccccc21', 15.8),
  ('CNC(=O)c1ccccc1Nc1cc(Nc2ccc(N3CCOCC3)cc2OC)ncc1C(F)(F)F', 5.3),
  ('O=C(/C=C/c1cccc(S(=O)(=O)Nc2ccccc2)c1)NO', 10),
  ('Cc1c(-c2ccc(N3CCc4cccc(C(=O)Nc5nc6ccccc6s5)c4C3)nc2C(=O)O)cnn1CC12CC3CC(CC(C3)C1)C2', 14.9),
  ('COc1cc(C(=O)O)ccc1NC(=O)[C@@H]1N[C@@H](CC(C)(C)C)[C@](C#N)(c2ccc(Cl)cc2F)[C@H]1c1cccc(Cl)c1F', 8.5),
  ('CO[C@H]1C[C@@H]2CC[C@@H](C)[C@@](O)(O2)C(=O)C(=O)N2CCCC[C@H]2C(=O)O[C@H]([C@H](C)C[C@@H]2CC[C@@H](O)[C@H](OC)C2)CC(=O)[C@H](C)/C=C(\C)[C@@H](O)[C@@H](OC)C(=O)[C@H](C)C[C@H](C)/C=C/C=C/C=C/1C', 9.5),
  ('CC(=O)c1cnc2ccc(-c3cc(Cl)c(O)c(Cl)c3)nc2c1N[C@H]1CC[C@H](CN(C)C)CC1', 10.5),
  ('CC(C)Oc1ccc(C(=O)N[C@H](CNC(=O)CN(C)C)Cc2ccc(-c3cn4cccc([C@H](C)O)c4n3)cc2)cc1Cl', 3.9);
